Molecular target: T1, human GPRC5D (human, UniProt Q9NZD1 1-345)
T1 construct: whole, on cells; also called hGPRC5D; G-protein coupled receptor family C group 5 member D
T1 sequence (Q9NZD1 whole entry): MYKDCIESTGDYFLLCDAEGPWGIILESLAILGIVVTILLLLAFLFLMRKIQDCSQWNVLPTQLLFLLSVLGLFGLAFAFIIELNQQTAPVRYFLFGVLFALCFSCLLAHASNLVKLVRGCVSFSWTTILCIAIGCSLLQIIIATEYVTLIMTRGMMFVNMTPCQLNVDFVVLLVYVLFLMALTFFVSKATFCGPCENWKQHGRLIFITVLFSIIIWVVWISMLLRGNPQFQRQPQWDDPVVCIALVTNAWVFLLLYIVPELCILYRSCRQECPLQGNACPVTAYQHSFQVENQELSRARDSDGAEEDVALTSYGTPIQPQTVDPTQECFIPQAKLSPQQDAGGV
Experiment: FACS, CHOS-hGPRC5D cells
// values below are reported Top

Which Top reading was recorded for the binder ch15D6G2 (antibody, V domains shown) VH: EVQLVESGGDLVKPGGYLRLSCAASGFTFSSHGMSWVRQTPDKRLEWVATISSGGRNTYYPDSVKGRFTISRDNAKNILYLQMSSLKSEDTAMFYCTRHSGDAMDYWGQGTSVTVSS VL: DILLTQSPAILSVSPGERVSFSCRASQSIGTNIHWYQQRTNGSPRLLIKYASESISGIPSRFSGSGSGTDFTLSINSVESEDIADYYCQQSKSWPTFGGGTKLEIK ?
4080

Similarly, ch89F11E3 (antibody, V domains shown) VH: QVQLQQSGAELARPGASVKMSCKASGYTFTSSTIHWVKQRPGQGLAWIGYIVPSTGYTNYNQKFKDKATLTADKSSSTAYMQLTSLTSEDSAVYYCARSDGYPFGYSMAYWGQGTSVTVSS VL: DIQMNQSPSSLSASLGDTITITCHASQNINVWLSWYHQKPGNIPKLLIYKASNLHTGVPSRFSGSGSGTGFTLTISRLQPEDIATYYCQQGQSYPFTFGSGTKLEIK ?
2600
